- test.protocol: in vivo
- condition.context: mouse, oral, read-out: LD50 orally
Quick reference: LD50 of the listed items.

- molecule.smiles: "CN(C)CCCn1nc(-c2ccc(N(C)C)cc2)c(-c2ccc(N(C)C)cc2)nc1=O"
  LD50: "> 1000 mg/kg"
- molecule.smiles: "C=CCn1nc(-c2ccc(N(C)C)cc2)c(-c2ccc(N(C)C)cc2)nc1=O"
  LD50: "> 1000 mg/kg"
- molecule.smiles: "CN(C)c1ccc(-c2nn(C)c(=O)nc2-c2ccc(Cl)cc2)cc1"
  LD50: "1500 mg/kg"
- molecule.smiles: "CN(C)c1ccc(-c2nc(=O)n(CCN3CCOCC3)nc2-c2ccc(N(C)C)cc2)cc1"
  LD50: "> 1000 mg/kg"
- molecule.smiles: "CN(C)c1ccc(-c2nc(=S)n(C)nc2-c2ccc(N(C)C)cc2)cc1"
  LD50: "> 1000 mg/kg"

Quick one: LD50 for `CCN(CC)c1ccc(-c2nc(=O)n(C)nc2-c2ccc(N(CC)CC)cc2)cc1` ?
> 1000 mg/kg

Another compound to check: `CN(C)c1ccc(-c2nn(C)c(=O)nc2-c2ccccc2Cl)cc1`
1000 mg/kg

Another compound to check: `CCN(CC)CCn1nc(-c2ccc(N(C)C)cc2)c(-c2ccc(N(C)C)cc2)nc1=O`
> 1000 mg/kg
